meta.source: paper PMC7253423

protocol_text: Cytotoxicity, cell viability assay in normal cells
Assay type: cell-based
run_parameters: human, relative cell viability (Fig 6c), replicates
Experimental: Human peripheral blood mononuclear cells (PBMCs), normal T-cells and B-cells were provided by the University of Pennsylvania Human Immunology Core (HIC), and Patient-derived xenografts (PDXs) were obtained from Fox Chase Cancer Center (FCCC). […] 5000 cells as indicated were cultured in 96-well plate with 100 μl of media. […] Luminescence was detected using a multi-mode reader Cytation 5 (BioTek, Winooski, VT). […]
observable: viability at 0.000244141 μM (%)
Write the value in % as a bare number.

Prompt line: Reported viability at 0.000244141 μM for COC(=O)C12OCC34C(CC5C(C)=C(OC(=O)CC(C)N)C(=O)CC5(C)C3C(O)C1O)OC(=O)C(OC(=O)C=C(C)C)C24 (stereo not shown) [#26] : what is it?
Response line: 111

====

protocol_text: Cytotoxicity, cell viability assay in normal cells
Type: cell-based
run_parameters: human, normal B-cells from healthy donors, B-cells, Con. 0.000244141 μM, fraction of 0 μM control; read-out: relative cell viability (Fig 6c), replicates
Quick reference for viability at 0.000244141 μM among some compounds
Use % as the unit, but write only the number.

Prompt line: # viability at 0.000244141 μM lookup, item `C[C@H](Nc1ncnc2nc[nH]c12)c1cc2cccc(Cl)c2c(=O)n1-c1ccccc1`
Response line: 94.3

====

Tested on: SU-DHL-4 cells
protocol_text: Cell viability assay (CellTiter-Glo luminescence)
Assay type: cell-based, human
run_parameters: Homo sapiens, SU-DHL-4, 144 h, read-out: relative cell viability (Fig 6d), replicates, SU-DHL-4, Con. 0.00244141 μM, fraction of 0 μM control
A collection of molecules and their measured viability at 0.00244141 µM
Answer format: numeric, % implied, no suffix.

Answered cases to consult:
molecule	study_system	viability at 0.00244141 µM [%]
C[C@H](NC(=O)c1c(N)nn2cccnc12)c1cc2cccc(C#Cc3cnn(C)c3)c2c(=O)n1-c1ccccc1	SU-DHL-4 cells	94.9
COC(=O)C12OCC34C(CC5C(C)=C(OC(=O)CNC(=O)OC(C)(C)C)C(=O)CC5(C)C3C(O)C1O)OC(=O)C(OC(=O)C=C(C)C)C24 (centres unmarked)	SU-DHL-4 cells	90.7
C[C@H](Nc1ncnc2nc[nH]c12)c1cc2cccc(Cl)c2c(=O)n1-c1ccccc1	SU-DHL-4 cells	103
COC(=O)C12OCC34C(CC5C(C)=C(OC(=O)CC(C)N)C(=O)CC5(C)C3C(O)C1O)OC(=O)C(OC(=O)C=C(C)C)C24 (centres unmarked)	SU-DHL-4 cells	125

Let us move to another entry and its viability at 0.00244141 µM.
Prompt line: What value of viability at 0.00244141 µM has been reported for the following molecule? `COc1c(OCCCN2CCOCC2)ccc2c1N=C(NC(=O)c1cnc(N)nc1)N1CCN=C21`
Response line: 122

====

protocol_text: Cytotoxicity, cell viability assay in normal cells
Assay type: cell-based
run_parameters: human, relative cell viability (Fig 6b), replicates
observable: viability at 0.0625 μM (%)
Answer format: numeric, % implied, no suffix.

Prompt line: Which viability at 0.0625 μM is reported for this molecule? COC(=O)C12OCC34C(CC5C(C)=C(OC(=O)CC(C)N)C(=O)CC5(C)C3C(O)C1O)OC(=O)C(OC(=O)C=C(C)C)C24 (stereo not shown) [#26]
Response line: 74.5
